# Test system: MOLT-4
# protocol: NCI tumour cell line growth inhibition, 48 h
Activity calls are given as the source filed them. Cut-off read from the data, not from the text of the source: active = GI50 up to about 1.1 µM and inactive = higher.
Choose the fitting class; nothing outside active, inactive is accepted.

1) CCC(=O)OCc1ccc2oc(=O)c(C(=O)Oc3cncc(Cl)c3)cc2c1 : inactive
2) CC(=O)Nc1cc(CN2CCCCC2)c(O)c2ncccc12 : inactive

Task: # lookup: test call for `O=C1N=C2SC(=S)N=C(S)N2NC12c1ccccc1-c1ccccc12`
Result: inactive

Task: Tell me the assay call for Clc1ccc(C2=NOC(C3CCCCC3)C2)cc1 (stereo unspecified) please.
Result: inactive

Task: Which outcome did this test record for the compound `COc1ccc(/C=C2\CN(C)C/C(=C\c3ccc(OC)c(OC)c3OC)C2=O)c(OC)c1OC` ?
Result: active

Task: Outcome? `Cc1ccc2c(c1C)C(=O)/C(=C/c1cccc(C)c1C(=O)O)C2`
Result: inactive

----------
# Test system: HL-60
# protocol: NCI tumour cell line growth inhibition, 48 h
The source made the active and inactive calls. Cut-off read from the data, not from the text of the source: active = GI50 up to about 1.1 µM and inactive = higher.
Tick one outcome: active, inactive

1) O=C(/C=C/c1ccccc1)Oc1ccc(C(=O)/C=C/c2ccccc2)cc1 : inactive

Task: Given COC12CCCN1c1ccn(Cc3ccccc3)c(=O)c1C2=O (centres undefined) , state the outcome it received in this test.
Result: inactive

Task: What classification did `O=C(Nc1nccs1)c1c(O)nc2sccn2c1=O` end up with in this test?
Result: inactive

Task: What did the test return for `CN(C)CCn1nc(N)c2nc3cc(C(F)(F)F)ccc3nc21` ?
Result: inactive

Task: Answer briefly: the call reported for `O=S(=O)(/C=C/CS(=O)(=O)c1ccccc1)c1ccccc1` in this assay.
Result: inactive

Task: Assay result, entry `O=C(CCc1ccc(O)cc1)NCCc1cccc(O)c1` — outcome?
Result: inactive

Task: How did this test come out for CN1C[C@@H]2CCCN2P1Oc1cccc2cccnc12 (some centres undefined) ?
Result: inactive

----------
# System: SF-539
# protocol: NCI tumour cell line growth inhibition, 48 h
Active and inactive are the calls of the source. No stated cut-off is given here; in the data, active = GI50 up to about 1.1 µM and inactive = higher.
Outcome field: choose from active, inactive

These solved cases illustrate the format of a correct answer.
1. N/C(=N\c1ccc(Cl)cc1)NS(=O)(=O)c1cccc2nsnc12 : inactive
2. O=C(OCCC12CC3CC(CC(C3)C1)C2)c1ccc(NCc2cc(O)ccc2O)cc1 : active
3. Cc1ccc2c(c1)C(=O)C(Cc1ccccc1C(=O)O)C2 (stereo not drawn) : inactive
4. COc1cc(C(=O)CC2OC(=O)C(Cl)=C2Cl)ccc1Cl (stereo not drawn) : inactive

Task: // outcome(item) with item = N#CC1(C#N)C(c2ccccc2)NC23CCCCC2C1(C#N)C(=O)N3 (stereo not drawn)
Result: inactive

Task: Could you please tell me the result logged for N#CC(C#N)=C1CCC2C(=C(C#N)C#N)CCC12 (stereo not drawn) in this assay?
Result: inactive

Task: Hi, do you know how `C=C(c1ccccc1)[C@@]1(O)CC[C@@H]1N(CC#N)Cc1ccccc1` came out in this test?
Result: inactive

----------
# System: OVCAR-3
# protocol: NCI tumour cell line growth inhibition, 48 h
Activity calls are given as the source filed them. Rule as the data show it: active = GI50 up to about 1.1 µM and inactive = higher.
attribute.measured: GI50

Task: # GI50 lookup, item CC(=O)OC1CCC2(C)C(=CC(C3C=C4CC(OC(C)=O)CCC4(C)C4=C3C3CC5OC6(CCC(C)CO6)C(C)C5C3(C)CC4)C3=C2CCC2(C)C3CC3OC4(CCC(C)CO4)C(C)C32)C1 (centres undefined)
Result: 15.1 µM (inactive)

Task: What value of GI50 has been recorded for this entry: NC(=S)N/N=C1/C(=O)N(c2ccccc2)C(=O)C1C(=O)Nc1ccccc1 (centres undefined)
Result: > 100 µM (inactive)

Task: // returns reported GI50 for input `COC(=O)/C=C1/N=C(N(C)/N=C/c2ccccc2)NC1=O`
Result: > 100 µM (inactive)

Task: Bench note: what GI50 did `CCn1c2ccc(O)c(C(=O)OC)c2c2cc3ccccc3c(O)c21` show?
Result: 14.5 µM (inactive)

Task: If you can, please state the reported GI50 value of `CCOC(=O)c1c(Cl)nc2ccccc2c1N=[N+]=[N-]` .
Result: 19.5 µM (inactive)
